Assay: yeast display, Sf9 membrane polyspecificity reagent, FACS + sequencing; frameworks hold sequencing errors
assayMetric: polyreactivity (PSR sort gate)

Reference set (4 entries):
{"chain": "QVQLVESGGGLVQAGGSLRLSCAASGLILAPNAMGWYRQAPGKERELVAAITFRGVRTYYADSVKGRFTISRDNEKNTVYLQMNSLKPEDTAVYYCAAAVSKHYPYNYWGQGTQVSVSS", "polyreactivity (PSR sort gate)": "high polyreactivity"}
{"chain": "QVQLVESGGGLDQAGGSLRLSSAASGFIFWFNAMRWYRQAPGTERELVATISRSDTSTYYADSVKGRFTISRDNAKNSVYLQMNSLKPEDTAVYYCATDVRETWLPEYYWGQGTEVTVSS", "polyreactivity (PSR sort gate)": "low polyreactivity"}
{"chain": "QVQLVESGGGLDQAGGSLRLSCAASGRTFKWNAIGWYRQAHGKERELVASITSGGSTNYADSVKGRFTISRDNAKNTVYLQMNSLKPEDTAVYYCNAEYYLFKRPYSYYYWGQGTQVTVSS", "polyreactivity (PSR sort gate)": "low polyreactivity"}
{"chain": "QGQLVESAGGLVQAGGSLRLSCAAYGRIFGINAMGWYRQAPGKERELVAASTGGGSTYADSVKGRVTISRDNAKNTVYLHMNSLKPEATAVYYCAARKIWSSIAYYYWGQGTQVTVSS", "polyreactivity (PSR sort gate)": "low polyreactivity"}

With those in mind, consider the next sequence.
Inquiry: Using the record for `QVQLVESGGGLVQAGGSLRLSCASSGLIFYKNAMGWYRQAPGKVRELVAAISWRDGRTYYADSVKGRFTISRDNAKNTVYLQMNSLKPEDTAVYYCNAVRGITYYDYFYWGQGTQVTVSS` , report its polyreactivity (PSR sort gate).
Reply text: high polyreactivity

meta.source: the nanobody polyreactivity screen of Harvey et al. (2022)
